tested on: morningglory (Ipomea lacunosa or Ipomea hederacea); assay: Preemergence herbicidal activity, morningglory; format: in vivo; conditions: Rate of Application 0.3 Kg/Ha, examined after 12-17 days
RECORDED METRIC: PREEMERGENCE HERBICIDAL ACTIVITY (% CONTROL) IPOSS (%)
Express it in %; write the number only.

CC(c1ccccc1)c1nc2c(Cl)cc(F)c(-n3c(=O)cc(C(F)(F)F)n(C)c3=O)c2[nH]1 (centres unmarked): 100
Cn1c(C(F)(F)F)cc(=O)n(-c2c(F)cc(Cl)c3c2nc(C(F)(F)F)n3C)c1=O: 95
Cn1c(C(F)(F)F)cc(=O)n(-c2c(F)cc(Cl)c3cc(C(C)(C)N)oc23)c1=O: 50
CCOC(=O)c1cc2c(-n3c(=O)cc(C(F)(F)F)n(C)c3=O)c(F)cc(Cl)c2[nH]1: 100
CC(Cl)c1cc2c(Cl)cc(F)c(-n3c(=O)cc(C(F)(F)F)n(C)c3=O)c2o1 (centres unmarked): 100

Output PREEMERGENCE HERBICIDAL ACTIVITY (% CONTROL) IPOSS of `CN(C)C(=O)c1cc2c(Cl)ccc(-n3c(=O)cc(C(F)(F)F)n(C)c3=O)c2o1`
100

Output PREEMERGENCE HERBICIDAL ACTIVITY (% CONTROL) IPOSS of `CON=Cc1cc2c(Cl)ccc(-n3c(=O)cc(C(F)(F)F)n(C)c3=O)c2o1`
70

Output PREEMERGENCE HERBICIDAL ACTIVITY (% CONTROL) IPOSS of `Cn1c(C(F)(F)F)cc(=O)n(-c2c(F)cc(Cl)c3cc(C(C)(C)NS(C)(=O)=O)oc23)c1=O`
100

The reported numbers originate from patent US6352958B1.
